- System: LOX IMVI melanoma
- TEST_DETAILS: NCI tumour cell line growth inhibition, 48 h
Consider the following compounds; for each one, report its TGI.

Study these solved cases before continuing.
CC(=O)OC[C@@]12Cc3ccc(C)c(O)c3[C@]1(C)[C@@H](OC(C)=O)[C@]1(O)[C@H]([C@@H](OC(=O)c3ccccc3)[C@@H](C)[C@H]1OC(C)=O)[C@H]2OC(C)=O | > 50 µM
COc1ccc(/C(=C/n2ccnc2)C(O)c2ccc(OC)c(OC)c2)cc1OC (centres undefined) | > 100 µM
CC(=O)O[C@H](C[C@H](C(C)C)N(C)C(=O)[C@@H](NC(=O)[C@H]1CCCN1C)C(C)C)c1nc(C(=O)N[C@@H](Cc2ccccc2)C[C@H](C)C(=O)O)c(C)s1 | > 16.7 µM

Parameters: items (list). Returns: TGI for each item.
1. O=C(CC(=O)c1cccc2ccccc12)C(=O)NC1C2CC3CC(C2)CC1C3 (centres undefined)
2. Cc1[nH]c(=O)[nH]c1C(=O)c1ccc(-n2ccnc2)cc1
3. COc1cc(C2=N/C(=C/c3cccs3)C(=O)O2)cc(OC)c1OC
4. CO/N=C\c1cc(O)c(O)c(/C=N/OC)c1
5. Cc1ccc(NC(=O)CSc2nnc3n(Cc4ccccc4)c(=O)c4c(C)c(C(N)=O)sc4n23)cc1
6. O=C(O)CCC(N=NNc1ccc(-c2nc3ccccc3[nH]2)cc1)C(=O)O (centres undefined)

Response line:
["> 100 µM", "> 100 µM", "> 100 µM", "> 100 µM", "> 100 µM", "> 100 µM"]

----------
- Test system: LOX IMVI melanoma
- TEST_DETAILS: NCI tumour cell line growth inhibition, 48 h
Give measured TGI for each item. Keep answers brief.
One number for each entry, in µM.

CN(C)CCNc1c2ccccc2nc2oc3ccccc3c12 | 14.9

Need TGI for each of these compounds.
1. O=C1C2CCN(CC2)C1(CO)CO
2. CC(=O)OCC1OC(O[C@@H]2C[C@H]3C(C)(C)[C@@H](OC(C)=O)CC[C@]3(C)[C@H]3CC[C@]45C[C@]4(CC[C@H]5[C@@H](C)C[C@@H](O)[C@H](O)C(C)(C)F)[C@@]32C)C(O)C(O)C1O (stereo not given in full)

Response line:
1: 36; 2: 4.33

----------
- Tested on: CCRF-CEM leukemia
- TEST_DETAILS: NCI tumour cell line growth inhibition, 48 h
REPORTED_ENDPOINT: TGI

Observe how each entry below is paired with its result.
CC(CN(C)C)Oc1ccccc1NC1=C(Cl)C(=O)C(Nc2ccccc2OC(C)CN(C)C)=C(Cl)C1=O (stereo not given) | 0.882 µM
N=CN=CC(=S)O[C@@H]1C(=O)N2CCC[C@@]23CCCC[C@@H]13 | > 12.5 µM

Please look at the items below and tell me TGI for each one, in order.
1. COC(=O)C(COC(=O)/C=C/c1ccc(OC(C)=O)c(OC(C)=O)c1)NC(=O)/C=C/c1ccc(OC(C)=O)c(OC(C)=O)c1 (stereo not given)
2. CC1(N)CCN(c2cnc(-c3cccc(Cl)c3Cl)c(N)n2)CC1
3. CC(=O)OC[C@@]12Cc3ccc(C)c(O)c3[C@]1(C)[C@@H](OC(C)=O)[C@]1(O)[C@H]([C@@H](OC(=O)c3ccccc3)[C@@H](C)[C@H]1OC(C)=O)[C@H]2OC(C)=O

Response line:
["> 100 µM", "> 100 µM", "> 50 µM"]

Hey, just so you know, these numbers are from PubChem BioAssay (NCI).
